Tested on: HUVEC
assayExplanation: Cytoprotective activity against H2O2-induced cell injury in HUVEC assessed as increase in cell survival pretreated for 24 hrs followed by H2O2-stimulation after 2 hrs by MTT assay
Type: functional, cell-based
conditionInfo: Homo sapiens
property: EC50 (nM)
Provide only the numeric value, understood in nM.

Task item: Provide one value: measured EC50 of C=C[C@]1(C)CC[C@@H](C(=C)COC(=O)/C=C/C(=O)OCC(=C)[C@@H]2CC[C@@](C)(C=C)[C@H](C(=C)C)C2)C[C@H]1C(=C)C
Reply: 220
